biological target: T1, Abz-LPESGK(Dnp)-CONH2
T1 chain: LPESGK
parameter: Avg kcat/KM

Query: // Avg kcat/KM lookup, key: eSrtA(4S-4) (protein) QAKPQIPKDKSKVAGYIEIPDADIKEPVYPGPATREQLNRGVSFVEENESLDDQNISITGHTSIDRPNYQFTNLKAAKKGSMVYFKVGNETRKYKMTSIRNVKPTAVEVLDEQKGKDKQLTLVTCDDYNEETGVWETRKIFVATEVK
Reply: 487
